Assay: Primary fluorescence-based thiol-reactive (MSTI) qHTS assay for identification of artifact compounds. (AID 1845221); also: nearly all actives have a fitted effect of over 65% in size
Conditions: MSTI thiol-reactivity probe, 1 h; series mostly up to 53.8 µM
Records with an inconclusive call do not appear. Calls of active or inactive are those of the source. Calls follow the shape of the dose curve; as a rule, active = well fitted inhibition curve with a large enough effect; inconclusive = small, poorly fitted or top-dose-only effect; inactive = no such curve, though single readings can be large or run the other way.
Hi! Could you answer with just one of these? active, inactive

Past entries and their recorded results:
**Query** Outcome logged for CC1=CCC(O)C2(C)CCC3C(C)C(=O)OC3C12 (centres undefined) in this assay:
**Result** inactive

**Query** Outcome logged for Cc1cc(O[C@@H]2O[C@H](COC(=O)CC(=O)O)[C@@H](O)[C@H](O)[C@H]2O)c(C(C)C)cc1O in this assay:
**Result** active

**Query** Outcome logged for Cc1cccc(-c2nn3c(c2-c2ccnc4ccc(C(N)=O)cc24)CCC3)n1 in this assay:
**Result** inactive

---
**Query** Outcome logged for CCc1nn(CCO)c(CC)c1Oc1cc(C#N)cc(C#N)c1 in this assay:
**Result** inactive

**Query** Outcome logged for CN1CCCC1Cc1c[nH]c2ccc(CCS(=O)(=O)c3ccccc3)cc12 (centres undefined) in this assay:
**Result** inactive

**Query** Outcome logged for C[C@@H]1CC[C@]2(C(=O)O)CC[C@]3(C)C(=CCC4[C@@]5(C)C[C@@H](O)[C@@H](O)C(C)(C)C5CC[C@]43C)C2[C@]1(C)O (some centres undefined) in this assay:
**Result** inactive

**Query** Outcome logged for COc1c2ccoc2nc2c(OC)c(O[C@@H]3O[C@@H](C)[C@H](O)[C@@H](O[C@@H]4O[C@H](CO)[C@@H](O)[C@H](O)[C@H]4O)[C@H]3OC(C)=O)ccc12 in this assay:
**Result** inactive

**Query** Outcome logged for Nc1ncnc2c1C(=O)N(c1ccc(C3CCC(CC(=O)O)CC3)cc1)CCO2 (centres undefined) in this assay:
**Result** inactive

**Query** Outcome logged for CCCC1=CC2=C(CO1)C(=O)C(C)(O)C(OC(=O)c1c(C)cc(OC)cc1O)C2 (centres undefined) in this assay:
**Result** inactive

###

Tested on: HEK293
Assay: Cytotoxic Profiling of Annotated Libraries Using Quantitative High-Throughput Screening (AID 1296008); also: nearly all actives have a fitted effect of over 60% in size; also: potency is read from the fitted curve at half-maximal effect
Details: Five cell lines viability, CellTiter-Glo ATP luminescence, 48-72 h
Records with an inconclusive call do not appear. The source made the active and inactive calls. Calls follow the shape of the dose curve; as a rule, active = well fitted inhibition curve with a large enough effect; inconclusive = small, poorly fitted or top-dose-only effect; inactive = flat fitted curve, though single readings scatter.
parameter-measured: Potency

**Query** // fetch Potency; item: O=C(/C=C/c1ccc(O)cc1)OC[C@H]1O[C@H](O[C@@]2(CO)O[C@@H](CO)[C@H](O)[C@H]2O)[C@H](O)[C@@H](O)[C@@H]1O ; system: HEK293
**Result** inactive

**Query** // fetch Potency; item: O=C(OC[C@H]1O[C@H](O[C@H]2CO[C@H](CO)[C@@H](O)[C@@H]2O)[C@H](O)[C@@H](O)[C@H]1O)c1ccccc1 ; system: HEK293
**Result** inactive

**Query** // fetch Potency; item: COc1cc(C(CO)CO[C@@H]2O[C@H](CO)[C@@H](O)[C@H](O)[C@H]2O)ccc1O (stereo partly specified) ; system: HEK293
**Result** inactive

**Query** // fetch Potency; item: COc1ccc(CCc2nc3cc(-c4c(C)noc4C)ccc3n2C[C@H](C)N2CCOCC2)cc1Cl ; system: HEK293
**Result** 18.4 µM (active)

**Query** // fetch Potency; item: CC1=C2CC3C(CCC3(C)O)C(C)(O)CC2OC1=O (stereo unspecified) ; system: HEK293
**Result** inactive

---
**Query** // fetch Potency; item: CC(C)=C1C[C@@]2(C)C(=CC1=O)CC[C@@H](O)[C@@H]2C ; system: HEK293
**Result** inactive
